# test: Human HepG2 cell viability assay in 384 well format
# Assay type: toxicity, cell-based
# Set-up: dose 125 nL, time 70.5 hour; concentration not given beside the values
# recorded.conditions: HepG2 cells, read-out: Inhibition
Each record here notes measured cytotoxicity at 70.5 h.
The response must be a number in % with no trailing unit.

Some compounds with known cytotoxicity at 70.5 h results, for comparison:
| compound | cytotoxicity at 70.5 h, % |
| --- | --- |
| CCCn1cc(C(=O)N2CCOC(c3nc(-c4cccs4)no3)C2)cn1 (stereo unspecified) | -4.18 |
| COCc1nc(CNC(=O)c2cc(C)c(C)[nH]c2=O)no1 | 2.71 |
| Cc1nccn1CC1CCCN1S(=O)(=O)Cc1ccon1 (stereo unspecified) | 4.51 |
| COc1cc2[nH]c(=O)c(CN3CCCC(CO)C3)cc2c(OC)c1OC (stereo unspecified) | -13.1 |

According to the records, this compound COc1ccc(CN2C[C@@H](N(C)Cc3ccco3)[C@H]3OCCC[C@H]32)cc1 displays cytotoxicity at 70.5 h of -8.22

According to the records, this compound CC(C)CN1CCO[C@H]2CCN(c3cnccn3)CC[C@@H]21 displays cytotoxicity at 70.5 h of -8.81

According to the records, this compound O=C(Cn1cccn1)NCC1CCCN(Cc2ccccc2)C1 (stereo unspecified) displays cytotoxicity at 70.5 h of -20.2

----------
# test: Human HepG2 cell viability assay in 384 well format
# Type: toxicity, cell-based
# Design: dose 125 nL, time 70.5 hour; concentration not given beside the values
# recorded.conditions: HepG2 cells, read-out: Inhibition
measured.parameter: cytotoxicity at 70.5 h (%)
The response must be a number in % with no trailing unit.

| compound | measured.parameter | value |
| --- | --- | --- |
| COCCNc1ccc(CNCc2cnc3nc(C)cc(C)n23)cc1 | cytotoxicity at 70.5 h | -9.55 |
| CCCSCC(=O)N1CCC2(CC1)CC(c1ccccc1)CN(C)C2 (stereo unspecified) | cytotoxicity at 70.5 h | 4.01 |
| Cn1cc(CN2CCC3(CC2)CN(C(=O)c2cnccn2)CCO3)cn1 | cytotoxicity at 70.5 h | -4.88 |
| COc1ccccc1C1(CNc2nnc(C)c(C)c2C#N)CCOCC1 | cytotoxicity at 70.5 h | -5.67 |
| NC(=O)N1CCCC(C(=O)NCCc2nc(Cc3ccccc3)no2)C1 (stereo unspecified) | cytotoxicity at 70.5 h | -17.9 |

According to the records, this compound CCN(CC)CCSc1ncnc2[nH]ncc12 displays cytotoxicity at 70.5 h of 1.79

According to the records, this compound CCc1nc2n(n1)CC(NCC1=Cc3ccc(OC)cc3OC1)CC2 (stereo unspecified) displays cytotoxicity at 70.5 h of 2.24

According to the records, this compound O=S(=O)(C1CC1)N1CC[C@H]2OCC[C@@]2(COc2ncccc2F)C1 displays cytotoxicity at 70.5 h of -12.6

According to the records, this compound CCN(C(=O)Cn1cc(Cl)cn1)c1ccccc1 displays cytotoxicity at 70.5 h of 5.93

According to the records, this compound O=C(CC1CCCO1)NCCCC(=O)Nc1ccc(Cl)cc1 (stereo unspecified) displays cytotoxicity at 70.5 h of -7.07

According to the records, this compound Cc1cc(CNC(=O)c2ccc(C(C)N3CCCCC3)o2)[nH]n1 (stereo unspecified) displays cytotoxicity at 70.5 h of -5.86

Recorded values, source ChEMBL document CHEMBL3507680.
